# Measurement Description: Tmax in rat at 30 mg/kg, po
# Format: ADME, organism-based
# Experimental Conditions: in vivo
Readout Kind: Tmax

Asked: Form field: reported Tmax of CC(F)(F)CN1C(=O)[C@]2(C)COCCN2c2nc(-c3ccc(NC(=O)NC4CC4)cc3)ncc21
Given back: 4 to 8 h

----------
# Measurement Description: Tmax in rat at 93 mg/kg, po
# Type: ADME, organism-based
# Experimental Conditions: in vivo
Readout Kind: Tmax
The answer should read as a number with its unit following.

Asked: Form field: reported Tmax of CC(F)(F)CN1C(=O)[C@]2(C)COCCN2c2nc(-c3ccc(NC(=O)NC4CC4)cc3)ncc21
Given back: 8.7 h

----------
# Measurement Description: Clearance in mouse at 10.4 mg/kg, iv
# Format: ADME, organism-based
# Experimental Conditions: in vivo
Readout Kind: clearance (mL/min/kg)
One number for each entry, in mL/min/kg.

Asked: Form field: reported clearance of CC(F)(F)CN1C(=O)[C@]2(C)COCCN2c2nc(-c3ccc(NC(=O)NC4CC4)cc3)ncc21
Given back: 4

----------
# Measurement Description: Volume of distribution at steady state in mouse at 2.8 mg/kg, iv
# Format: ADME, organism-based
# Experimental Conditions: in vivo, read-out: Vdss
Readout Kind: Vd

Asked: Form field: reported Vd of CC(F)(F)CN1C(=O)[C@]2(C)COCCN2c2nc(-c3ccc(NC(=O)NC4CC4)cc3)ncc21
Given back: 1.66 L/kg

----------
# Measurement Description: Half-life in mouse at 10.4 mg/kg, iv
# Format: ADME, organism-based
# Experimental Conditions: in vivo
Readout Kind: half-life (h)
Answers are plain numbers, in h.

Asked: Form field: reported half-life of CC(F)(F)CN1C(=O)[C@]2(C)COCCN2c2nc(-c3ccc(NC(=O)NC4CC4)cc3)ncc21
Given back: 2

----------
# Measurement Description: Tmax in rat at 160 mg/kg, po
# Format: ADME, organism-based
# Experimental Conditions: in vivo
Readout Kind: Tmax (h)
One number for each entry, in h.

Asked: Form field: reported Tmax of CC(F)(F)CN1C(=O)[C@]2(C)COCCN2c2nc(-c3ccc(NC(=O)NC4CC4)cc3)ncc21
Given back: 10

----------
# Measurement Description: Half-life in rat at 160 mg/kg, po
# Format: ADME, organism-based
# Experimental Conditions: in vivo
Readout Kind: half-life

Asked: Form field: reported half-life of CC(F)(F)CN1C(=O)[C@]2(C)COCCN2c2nc(-c3ccc(NC(=O)NC4CC4)cc3)ncc21
Given back: 21.4 h

----------
# Measurement Description: Tmax in dog at 0.45 mg/kg, po
# Format: ADME, organism-based, Canis lupus familiaris
# Experimental Conditions: in vivo
Readout Kind: Tmax (h)
Answers are plain numbers, in h.

Asked: Form field: reported Tmax of CC(F)(F)CN1C(=O)[C@]2(C)COCCN2c2nc(-c3ccc(NC(=O)NC4CC4)cc3)ncc21
Given back: 4

----------
# Measurement Description: Tmax in rat at 83 mg/kg, po
# Type: ADME, organism-based
# Experimental Conditions: in vivo
Readout Kind: Tmax (h)
Give bare numbers, in h.

Asked: Form field: reported Tmax of CC(F)(F)CN1C(=O)[C@]2(C)COCCN2c2nc(-c3ccc(NC(=O)NC4CC4)cc3)ncc21
Given back: 14

----------
# Measurement Description: Cmax in mouse at 2.8 mg/kg, iv
# Format: ADME, organism-based
# Design: dose 2.8 mg/kg, route intravenous
# Experimental Conditions: in vivo
Readout Kind: Cmax (ng/mL)
One number for each entry, in ng/mL.

Asked: Form field: reported Cmax of CC(F)(F)CN1C(=O)[C@]2(C)COCCN2c2nc(-c3ccc(NC(=O)NC4CC4)cc3)ncc21
Given back: 6860

----------
# Measurement Description: Cmax in rat at 30 mg/kg, po
# Type: ADME, organism-based
# Parameters: dose 30 mg/kg, route oral
# Experimental Conditions: in vivo
Readout Kind: Cmax

Asked: Form field: reported Cmax of CC(F)(F)CN1C(=O)[C@]2(C)COCCN2c2nc(-c3ccc(NC(=O)NC4CC4)cc3)ncc21
Given back: 1850 to 2400 ng/mL

----------
# Measurement Description: Half-life in rat at 95 mg/kg, po
# Assay type: ADME, organism-based
# Experimental Conditions: in vivo
Readout Kind: half-life (h)
One number for each entry, in h.

Asked: Form field: reported half-life of CC(F)(F)CN1C(=O)[C@]2(C)COCCN2c2nc(-c3ccc(NC(=O)NC4CC4)cc3)ncc21
Given back: 33.9

----------
# Measurement Description: Clearance in dog at 0.2 mg/kg, iv
# Assay type: ADME, organism-based, Canis lupus familiaris
# Experimental Conditions: in vivo
Readout Kind: clearance (mL/min/kg)
Numbers only, in mL/min/kg.

Asked: Form field: reported clearance of CC(F)(F)CN1C(=O)[C@]2(C)COCCN2c2nc(-c3ccc(NC(=O)NC4CC4)cc3)ncc21
Given back: 3.3

----------
# Measurement Description: Half-life in rat at 4.1 mg/kg, po
# Assay type: ADME, organism-based
# Experimental Conditions: in vivo
Readout Kind: half-life (h)
Numbers only, in h.

Asked: Form field: reported half-life of CC(F)(F)CN1C(=O)[C@]2(C)COCCN2c2nc(-c3ccc(NC(=O)NC4CC4)cc3)ncc21
Given back: 15.2
